Measured values drawn from ChEMBL document CHEMBL6115043 for this set.

I'd be grateful if you could share measured IC50 for these entries.
- target_of_assay: 15-hydroxyprostaglandin dehydrogenase [NAD(+)] (Homo sapiens, UniProt P15428)
- Sequence (P15428 whole entry): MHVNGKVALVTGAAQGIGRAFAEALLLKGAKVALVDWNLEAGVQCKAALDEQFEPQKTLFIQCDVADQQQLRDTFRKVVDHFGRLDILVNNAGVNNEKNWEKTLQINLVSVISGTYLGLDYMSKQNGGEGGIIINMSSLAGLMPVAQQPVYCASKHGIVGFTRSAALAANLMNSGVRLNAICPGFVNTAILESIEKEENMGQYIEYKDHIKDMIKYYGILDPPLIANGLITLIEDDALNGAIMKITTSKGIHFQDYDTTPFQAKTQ
- test: Inhibition of 15-PGDH in human A549 cells assessed as increase in IL-1beta-stimulated PGE2 levels measured after 24 hrs by competitive HTRF assay
- Format: cell-based
Answer format: number, then unit.

Inquiry: Look up IC50: `Cn1cc2cc(-c3ccc4cc([C@]5(O)C[C@@H](C(F)(F)F)C5)sc4n3)cnc2n1`
Reply text: 0.05 nM

Inquiry: Likewise for `Cn1cc2cc(-c3ccc4nc([C@H](O)C5CC(F)(F)C5)sc4n3)cnc2n1` ?
Reply text: 0.05 nM
